Assay: Pharmacokinetics of anti-FRα antibodies in wild-type SCID mice
Assay type: in vivo, mouse
Settings: 5 mg/kg iv bolus, total antibody
Method: Pharmacokinetic parameters were determined using Phoenix 64 software (Certara). Plasma antibody concentrations were determined by the universal ELISA IgG assay.
endpoint: AUClast (µg·days/mL)
Answer format: numeric, µg·days/mL implied, no suffix.

molecule="AB1370083: anti-FRα fully human IgG1 antibody; VH SEQ ID NO: 43, VL SEQ ID NO: 44 (antibody, V domains shown) VH: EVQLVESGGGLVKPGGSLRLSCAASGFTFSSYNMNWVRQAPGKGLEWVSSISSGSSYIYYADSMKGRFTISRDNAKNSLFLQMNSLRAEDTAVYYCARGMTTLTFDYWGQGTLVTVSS VL: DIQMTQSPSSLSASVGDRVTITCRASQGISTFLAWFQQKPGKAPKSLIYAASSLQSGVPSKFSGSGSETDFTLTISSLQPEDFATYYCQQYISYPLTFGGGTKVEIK" obs_value=430
molecule="AB1370035: anti-FRα fully human IgG1 antibody; VH SEQ ID NO: 41, VL SEQ ID NO: 42 (antibody, V domains shown) VH: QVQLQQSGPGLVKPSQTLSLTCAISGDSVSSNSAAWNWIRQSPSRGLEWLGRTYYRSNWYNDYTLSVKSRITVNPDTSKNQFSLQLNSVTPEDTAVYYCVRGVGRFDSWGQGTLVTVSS VL: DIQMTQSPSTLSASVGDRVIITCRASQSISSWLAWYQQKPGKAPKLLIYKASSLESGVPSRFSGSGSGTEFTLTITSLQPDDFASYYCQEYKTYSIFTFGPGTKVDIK" obs_value=455
molecule="AB1370026: anti-FRα fully human IgG1 antibody; VH SEQ ID NO: 39, VL SEQ ID NO: 40 (antibody, V domains shown) VH: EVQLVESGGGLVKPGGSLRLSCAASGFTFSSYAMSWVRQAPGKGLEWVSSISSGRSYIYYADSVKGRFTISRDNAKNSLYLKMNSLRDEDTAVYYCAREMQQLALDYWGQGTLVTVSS VL: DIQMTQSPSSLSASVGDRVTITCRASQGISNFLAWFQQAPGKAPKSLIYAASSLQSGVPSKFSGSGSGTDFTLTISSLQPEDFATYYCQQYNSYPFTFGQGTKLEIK" obs_value=553

Okay, next one:
Prompt: Any idea what its AUClast is? The molecule is AB1370095: anti-FRα fully human IgG1 antibody; VH SEQ ID NO: 45, VL SEQ ID NO: 46 (antibody, V domains shown) VH: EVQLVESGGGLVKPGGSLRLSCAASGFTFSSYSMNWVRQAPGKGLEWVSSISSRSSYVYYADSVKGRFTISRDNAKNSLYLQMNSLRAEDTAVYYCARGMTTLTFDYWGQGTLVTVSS VL: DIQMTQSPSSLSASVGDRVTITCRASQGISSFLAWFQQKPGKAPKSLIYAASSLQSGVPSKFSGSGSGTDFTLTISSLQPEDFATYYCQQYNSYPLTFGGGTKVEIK
Completion: 646
